molecular target: human mesothelin (MSLN) (human) (UniProt Q13421); test: BLI (Octet), bsAb in 1+1 Fab-scFv-Fc format
Would you kindly list koff for each of these binders?
Please reply with the bare figure in s⁻¹ and do not write the unit itself.

Query (binder): XENP32556 (bispecific antibody, part only; not given: anti-CD3 scFv-Fc arm, constant regions, V domains shown, not shown: another chain or arm of the molecule; a dimerising Fc or GST; small tags and cut ends) VH: QVQLVQSGAEVKKPGASVKVSCKASGYTFTSYWMHWVRQAPGQGLEWMGMIHPNSDNTIYYEKFQGRVTMTVDKSISTAYMELSRLRSDDTAVYYCARIITPVVPKFDYWGQGTLVTVSS VL: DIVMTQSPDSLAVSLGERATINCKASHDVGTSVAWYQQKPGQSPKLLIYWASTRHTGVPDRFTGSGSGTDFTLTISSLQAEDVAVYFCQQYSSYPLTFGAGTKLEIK ; field requested: koff
0.000199

Query (binder): XENP32559 (bispecific antibody, part only; not given: anti-CD3 scFv-Fc arm, constant regions, V domains shown, not shown: another chain or arm of the molecule; a dimerising Fc or GST; small tags and cut ends) VH: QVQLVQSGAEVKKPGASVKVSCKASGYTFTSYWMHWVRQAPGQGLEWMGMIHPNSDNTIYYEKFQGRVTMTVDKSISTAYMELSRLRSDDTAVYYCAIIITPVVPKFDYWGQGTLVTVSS VL: DIVMTQSPDSLAVSLGERATINCKSSHDVGTSVAWYQQKPGQSPKLLIYWASTRHTGVPDRFTGSGSGTDFTLTISSLQAEDVAVYFCQQYSSYPLTFGAGTKLEIK ; field requested: koff
0.000161

Query (binder): XENP32560 (bispecific antibody, part only; not given: anti-CD3 scFv-Fc arm, constant regions, V domains shown, not shown: another chain or arm of the molecule; a dimerising Fc or GST; small tags and cut ends) VH: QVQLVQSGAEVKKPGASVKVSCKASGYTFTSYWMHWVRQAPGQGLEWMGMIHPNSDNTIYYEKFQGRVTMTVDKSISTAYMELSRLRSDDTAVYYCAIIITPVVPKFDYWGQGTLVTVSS VL: DIVMTQSPDSLAVSLGERATINCKASQDVGTSVAWYQQKPGQSPKLLIYWASTRHTGVPDRFTGSGSGTDFTLTISSLQAEDVAVYFCQQYSSYPLTFGAGTKLEIK ; field requested: koff
0.000383
